# Test system: 786-0
# Measurement Notes: NCI tumour cell line growth inhibition, 48 h
Active and inactive are the calls of the source. Cut-off read from the data, not from the text of the source: active = GI50 up to about 1.1 µM and inactive = higher.
Outcomes: active, inactive

Molecule	Subject Of Test	Class Assignment
CC(C)c1nc(Cl)nc(Cl)c1Cl	786-0	active
Cc1nc2c(n1CCC(C)C)C(=O)c1ccccc1C2=O	786-0	inactive
CC(=O)C(C)(C)CCC(C)(C)C(C)=O	786-0	inactive
Cc1ccc(-c2cc(O)c3nc4ccccc4n3c2)cc1	786-0	inactive
COc1cccc(C2CC(=O)c3cccn32)c1 (stereo unspecified)	786-0	inactive
O=C(CCC(=O)C(C(=O)c1ccccc1)c1ccccc1)Nc1cccc(C(F)(F)F)c1 (stereo unspecified)	786-0	inactive

###

GI50 reference
# Tested on: HOP-92
# Measurement Notes: NCI tumour cell line growth inhibition, 48 h
The source made the active and inactive calls. Cut-off read from the data, not from the text of the source: active = GI50 up to about 1.1 µM and inactive = higher.
Readout Label: GI50

Molecule	Result
CC(C)NC(=O)O/N=C1\CCC2[C@@H]3CC=C4C[C@@H](OC(=O)NC(C)C)CC[C@]4(C)C3CC[C@]12C (stereo partly specified)	2.08 µM (inactive)
O=C(/C=C/c1cccc([N+](=O)[O-])c1)c1cccnc1	74 µM (inactive)
C=CCC1(O)C(=O)OC2C(O)COC21O (stereo unspecified)	> 100 µM (inactive)
CCc1ccccc1NC(=O)C1=C(C)NC(C)=C(C(=O)Nc2ccccc2CC)C1c1ccc2c(c1)OCO2	13.6 µM (inactive)
NS(=O)(=O)c1cc(C(=O)O)c(O)c2ccccc12	> 100 µM (inactive)
Cc1ccc(-c2c(C#N)c(-c3ccc(N(C)C)cc3)c(C#N)c(=O)n2NS(=O)(=O)c2ccccc2)cc1	> 100 µM (inactive)

###

# Test system: M14
# Measurement Notes: NCI tumour cell line growth inhibition, 48 h
Activity calls are given as the source filed them. Cut-off read from the data, not from the text of the source: active = GI50 up to about 1.1 µM and inactive = higher.
Classes used: active, inactive

Molecule	Subject Of Test	Class Assignment
CCCCCCCCCCCCCCC[C@@H](O)C[N+](C)(C)CCO	M14	inactive
CCN(CC)CCNC(=O)c1ccccc1Nc1c(Cl)cccc1Cl	M14	inactive
COc1cc(-c2coc3c(OC)c(OC4OC(CO)C(O)C(O)C4O)c(OC)cc3c2=O)cc(OC)c1C (centres undefined)	M14	inactive
O=C(NCC#CCO)C(F)(F)F	M14	inactive
C/C(CCN(C)C)=N/O	M14	active
Cc1ncc(C/N=C/c2ccc(Cl)cc2)c(N)n1	M14	inactive
CCOC(=O)NC(=O)c1cn(CCCO)c(=O)[nH]c1=O	M14	inactive
CC(N/N=C(\S)N1CCCC1)c1cccnn1 (centres undefined)	M14	active
CNC(=O)CCCNC(=O)CCCCC(=O)N(C)C	M14	inactive
FC(F)(F)c1ccc2c(c1)nc(-c1ccc(Cl)cc1)n2CC1CCCN2CCCCC12 (centres undefined)	M14	inactive
COC[C@@H](/N=C/N1CCc2cc(OC)c(OC)cc2[C@@H]1C)C(C)(C)C	M14	inactive
O=C1NC(=O)C2C1N(Cc1ccccc1)C(=O)N2Cc1ccccc1 (centres undefined)	M14	inactive
O=C1OC(C(O)C(O)C(O)CO)C(O)C1O (centres undefined)	M14	inactive
CCOC(=O)CCn1cnc(N)n1	M14	inactive
CCSc1c2ccccc2nc2c(OC)ccc(OC)c12	M14	inactive
O=C(CCC(=O)C(C(=O)c1ccccc1)c1ccccc1)Nc1cccc(C(F)(F)F)c1 (centres undefined)	M14	inactive
Cc1nc2ccccc2[nH]/c1=N/Nc1ccccc1	M14	inactive
O=C1C(Cl)N(c2ccccc2)C1c1c[nH]c2ccccc12 (centres undefined)	M14	inactive
COc1cc(O)c2c(c1)C(=O)C=C(Cl)C2=O	M14	inactive
